Target: T1, hCD38-his (SEQ ID NO: 2) (human, UniProt P28907 45-300)
T1 construct: His-tagged soluble protein derived from isoform A; also called human CD38-histag; hCD38::Histag
Assay: ELISA (column ELISA EC50 nM, hu)
Quick list: pEC50 per entry.
Here pEC50 is given on a logarithmic scale as minus log10 of the concentration in mol/L.

# count of solved cases: 3
[[record]]
binder = "mAb2 (antibody, human IgG1, kappa, V domains shown, also called antiCD38_C2-CD38-1_VH1-VL1; CD38VH1) VH: QVQLVQSGAEVVKPGASVKVSCKASGYTFTSYAMHWVKEAPGQRLEWIGYIYPGQGGTNYNQKFQGRATLTADTSASTAYMELSSLRSEDTAVYFCARTGGLRRAYFTYWGQGTLVTVSS VL: DIVLTQSPATLSLSPGERATISCRASQSVSSYGQGFMHWYQQKPGQPPRLLIYGASSRATGIPARFSGSGSGTDFTLTISPLEPEDFAVYYCQQNKEDPWTFGGGTKLEIKR"
reported_measurement = 9.96

[[record]]
binder = "mAb3 (antibody, human IgG1, kappa, V domains shown, also called antiCD38_C2-CD38-1_VH3-VL3) VH: QVQLVQSGAEVVKPGASVKVSCKASGYTFTSFNMHWVKEAPGQRLEWIGYIYPGNGGTNYNQKFQGRATLTADTSASTAYMELSSLRSEDTAVYFCARTGGLRRAYFTYWGQGTLVTVSS VL: DIVLTQSPATLSLSPGERATISCRASESVDSYGNGFMHWYQQKPGQPPRLLIYLASSRATGIPARFSGSGSGTDFTLTISPLEPEDFAVYYCQQNKEDPWTFGGGTKLEIKR"
reported_measurement = 9.80

[[record]]
binder = "mAb5 (antibody, human IgG1, kappa, V domains shown, also called antiCD38_C2-CD38-1_VH6-VL3) VH: QVQLVQSGAEVVKPGASVKMSCKASGYTFTSFNMHWVKEAPGQRLEWIGYIYPGNGGTNYNQKFQGRATLTADTSASTAYMEISSLRSEDTAVYFCARTGGLRRAYFTYWGQGTLVTVSS VL: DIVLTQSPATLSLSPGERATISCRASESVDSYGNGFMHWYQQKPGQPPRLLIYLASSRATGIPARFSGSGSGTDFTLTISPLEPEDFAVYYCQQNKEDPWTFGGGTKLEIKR"
reported_measurement = 9.85


Next item in the queue.
Query block: # lookup: pEC50 of mAb4 (antibody, human IgG1, kappa, V domains shown, also called antiCD38_C2-CD38-1_VH5-VL3) VH: QVQLVQSGAEVVKSGASVKVSCKASGYTFTSFNMHWVKEAPGQGLEWIGYIYPGNGGTNYNQKFQGRATLTADTSASTAYMEISSLRSEDTAVYFCARTGGLRRAYFTYWGQGTLVTVSS VL: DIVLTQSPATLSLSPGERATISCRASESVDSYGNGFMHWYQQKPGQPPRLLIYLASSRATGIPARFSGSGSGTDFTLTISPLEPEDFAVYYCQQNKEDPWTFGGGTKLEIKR
Result block: 9.80
